All values here come from patent US6800637B2.

Where a name gives a salt, the structure may show the parent alone.
measurement.type: melting point

A selection of reference data follows.
Identify melting point associated with the molecule Cc1nc2ccc3c(c2o1)O[C@@H](CNCCCc1c[nH]c2ccc(F)cc12)CO3 (as salt: hydrochloride)
91 to 93 °C

Tell us which melting point value is on record for Cc1nc2ccc3c(c2o1)O[C@@H](CN(C)CCCc1c[nH]c2ccc(C#N)cc12)CO3 (as salt: hydrochloride)
140 °C (dec.)

Identify measured melting point corresponding to Cc1ccc2c3c(ccc2n1)OC[C@H](CN(C)CCCc1csc2ccccc12)O3 (as salt: fumarate)
123 to 127 °C

Check the records and state melting point for Cc1ccc2c3c(ccc2n1)OC[C@H](CNCCCc1csc2ccc(Cl)cc12)O3 (as salt: fumarate)
193 to 196 °C

Note melting point for the molecule shown: Cc1ccc2c3c(ccc2n1)OCC(CNCCCCc1c[nH]c2ccc(F)cc12)O3 (stereo not shown) (as salt: fumarate)
138 to 154 °C

Return reported melting point. Input molecule: Cc1nc2ccc3c(c2o1)OC(CN(C)CCCc1c[nH]c2ccc(F)cc12)CO3 (stereo not shown) (as salt: hydrochloride)
136 to 139 °C

More entries:
Could you please provide reported melting point for Cc1ccc2c3c(ccc2n1)OCC(CNCCCn1ccc2ccc(F)cc21)O3 (stereo not shown) (as salt: hydrochloride) ? Thanks!
154 to 156 °C
